Tested on: Toxoplasma gondii RH tachyzoites
Assay details: % growth inhibition vs DMSO (48 h luciferase); higher = more inhibition
Condition summary: 10 µM
Kindly supply the reported % growth inhibition values for the records listed here.

### Prompt I'm curious: which % growth inhibition was measured for COc1cccc(C(=O)NC(c2ccc(C)cc2)c2cc(Cl)c3cccnc3c2O)c1 (stereo not drawn) tested on Toxoplasma gondii RH tachyzoites?
### Response < 0%

### Prompt I'm curious: which % growth inhibition was measured for Cc1cc(NC(=O)c2ccc(-c3ccccc3)cc2)no1 tested on Toxoplasma gondii RH tachyzoites?
### Response < 0%

### Prompt I'm curious: which % growth inhibition was measured for Clc1ccc2[nH]c3c(NCCCN4CCOCC4)ncnc3c2c1 tested on Toxoplasma gondii RH tachyzoites?
### Response < 0%

### Prompt I'm curious: which % growth inhibition was measured for COc1cccc(Nc2nc(N)c3ccccc3n2)c1 tested on Toxoplasma gondii RH tachyzoites?
### Response < 0%

### Prompt I'm curious: which % growth inhibition was measured for Cn1c(=O)c2cc(C(=O)NCCCN3CCCCCC3)sc2c2ccccc21 tested on Toxoplasma gondii RH tachyzoites?
### Response 5.71%

### Prompt I'm curious: which % growth inhibition was measured for COc1ccccc1NC1=C(N2CCCCC2)C(=O)c2ccccc2C1=O tested on Toxoplasma gondii RH tachyzoites?
### Response 90.3%

### Prompt I'm curious: which % growth inhibition was measured for O=C(Nc1ccc(Cl)cc1C(=O)Nc1ccncc1)c1ccc(Cl)cc1Cl tested on Toxoplasma gondii RH tachyzoites?
### Response 80.8%

### Prompt I'm curious: which % growth inhibition was measured for COc1ccc(C(=O)NC(c2ccccc2Cl)c2cc(Cl)c3cccnc3c2O)cc1 (stereo not drawn) tested on Toxoplasma gondii RH tachyzoites?
### Response 96.5%

### Prompt I'm curious: which % growth inhibition was measured for Cc1ccc(C)c(-c2csc(Nc3ccc(C)c(C)c3)n2)c1 tested on Toxoplasma gondii RH tachyzoites?
### Response < 0%

### Prompt I'm curious: which % growth inhibition was measured for COc1ccc(CN2CCCC(C(=O)c3ccc(C(F)(F)F)cc3)C2)c(O)c1 (stereo not drawn) tested on Toxoplasma gondii RH tachyzoites?
### Response < 0%

### Prompt I'm curious: which % growth inhibition was measured for CCOC(=O)c1c[nH]c2c(CC)cccc2c1=O tested on Toxoplasma gondii RH tachyzoites?
### Response 29.3%

### Prompt I'm curious: which % growth inhibition was measured for CCOC(=O)c1c(C)n(-c2ccc(Cl)cc2)c2ccc(OC(=O)C=Cc3ccccc3)cc12 tested on Toxoplasma gondii RH tachyzoites?
### Response 69.3%

### Prompt I'm curious: which % growth inhibition was measured for OCCNc1nc(Nc2ccc(Cl)c(Cl)c2)nc2ccccc12 tested on Toxoplasma gondii RH tachyzoites?
### Response < 0%

### Prompt I'm curious: which % growth inhibition was measured for CCOc1ccc(Nc2c3ccccc3nc3ccccc23)cc1 tested on Toxoplasma gondii RH tachyzoites?
### Response 100%

### Prompt I'm curious: which % growth inhibition was measured for Cc1ccc(C(=O)c2oc3ccc4c(C)cc(=O)oc4c3c2C)cc1 tested on Toxoplasma gondii RH tachyzoites?
### Response < 0%

### Prompt I'm curious: which % growth inhibition was measured for COc1cc(-c2nc(-c3ccccc3)c(-c3ccccc3)[nH]2)cc(OC)c1O tested on Toxoplasma gondii RH tachyzoites?
### Response 6.6%

### Prompt I'm curious: which % growth inhibition was measured for N=c1n(CCN2CCCCC2)c2ccccc2n1CC(=O)c1ccc(Cl)c(Cl)c1 tested on Toxoplasma gondii RH tachyzoites?
### Response 99.9%

### Prompt I'm curious: which % growth inhibition was measured for COc1ccc(-c2c(C)nn3c(N)c(C#N)cnc23)cc1OC tested on Toxoplasma gondii RH tachyzoites?
### Response 7.54%

### Prompt I'm curious: which % growth inhibition was measured for COCCn1c(C)nc2ccccc2c1=O tested on Toxoplasma gondii RH tachyzoites?
### Response 57.4%

### Prompt I'm curious: which % growth inhibition was measured for CCCC(c1nnnn1C1CCCCC1)N1CCN(C(=O)c2ccco2)CC1 (stereo not drawn) tested on Toxoplasma gondii RH tachyzoites?
### Response 9.52%

### Prompt I'm curious: which % growth inhibition was measured for O=C(NNc1cc(N2CCCC2)nc(N2CCCC2)n1)c1ccccc1 tested on Toxoplasma gondii RH tachyzoites?
### Response 27.4%

### Prompt I'm curious: which % growth inhibition was measured for Cc1ccc(OCCCCCCNCCO)c(C)c1 tested on Toxoplasma gondii RH tachyzoites?
### Response 76.2%

### Prompt I'm curious: which % growth inhibition was measured for CCc1ccc(CNCC(O)c2ccccc2)cc1 (stereo not drawn) tested on Toxoplasma gondii RH tachyzoites?
### Response < 0%

### Prompt I'm curious: which % growth inhibition was measured for Cc1cc(C=C2SC(=Nc3ccccc3)N(C3CCCC3)C2=O)c(C)n1-c1ccc(Cl)cc1 tested on Toxoplasma gondii RH tachyzoites?
### Response < 0%

### Prompt I'm curious: which % growth inhibition was measured for Oc1c(C(Nc2ccccn2)c2cccc(Oc3ccccc3)c2)ccc2cccnc12 (stereo not drawn) tested on Toxoplasma gondii RH tachyzoites?
### Response 99.1%

### Prompt I'm curious: which % growth inhibition was measured for Cc1ccc(Cn2c(N3CCC(C(=O)NCc4cccs4)CC3)nc3ccccc32)cc1 tested on Toxoplasma gondii RH tachyzoites?
### Response 66.1%

### Prompt I'm curious: which % growth inhibition was measured for Cc1c(C)n(CC(O)CNC2CCCCC2C)c2ccccc12 (stereo not drawn) tested on Toxoplasma gondii RH tachyzoites?
### Response < 0%

### Prompt I'm curious: which % growth inhibition was measured for Oc1c2c(nc3cc(-c4ccccc4)nn13)CCCC2 tested on Toxoplasma gondii RH tachyzoites?
### Response 26.5%

### Prompt I'm curious: which % growth inhibition was measured for O=c1cc(NC2CCN(CCCc3ccccc3)CC2)c2cc(Cl)ccc2o1 tested on Toxoplasma gondii RH tachyzoites?
### Response 22%

### Prompt I'm curious: which % growth inhibition was measured for CCN(CC)CCNc1ccnc2cc(Cl)ccc12 tested on Toxoplasma gondii RH tachyzoites?
### Response 45.2%

### Prompt I'm curious: which % growth inhibition was measured for COc1cccc(Nc2nc(NCCO)c3ccccc3n2)c1 tested on Toxoplasma gondii RH tachyzoites?
### Response 97.5%

### Prompt I'm curious: which % growth inhibition was measured for COc1ccc(C2c3ccc4ccccc4c3Oc3ncn(CCCN(C)C)c(=N)c32)cc1 (stereo not drawn) tested on Toxoplasma gondii RH tachyzoites?
### Response 100%

### Prompt I'm curious: which % growth inhibition was measured for CCN(CC)CCn1c(=N)n(CC(O)c2ccc(Cl)c(Cl)c2)c2ccccc21 (stereo not drawn) tested on Toxoplasma gondii RH tachyzoites?
### Response 85.7%

### Prompt I'm curious: which % growth inhibition was measured for CN1C=C(c2ccc3ccccc3n2)C(c2c[nH]c3ccccc23)c2ccccc21 (stereo not drawn) tested on Toxoplasma gondii RH tachyzoites?
### Response < 0%

### Prompt I'm curious: which % growth inhibition was measured for O=C(Nc1cccc(C2=NCCN2)c1)Nc1cccc(C2=NCCN2)c1 tested on Toxoplasma gondii RH tachyzoites?
### Response 7.82%

### Prompt I'm curious: which % growth inhibition was measured for c1ccc(/C2=N/c3ccccc3/N=C(/c3ccccc3)c3ccccc32)cc1 tested on Toxoplasma gondii RH tachyzoites?
### Response < 0%

### Prompt I'm curious: which % growth inhibition was measured for CCc1c(C)c(=N)c2ccccc2n1C tested on Toxoplasma gondii RH tachyzoites?
### Response < 0%

### Prompt I'm curious: which % growth inhibition was measured for Cc1cccc(N2C(=O)C3C(C2=O)C2(c4ccccc4)C(=O)C3(c3ccccc3)C(c3ccc4c(c3)OCO4)=C2c2ccc3c(c2)OCO3)c1 (stereo not drawn) tested on Toxoplasma gondii RH tachyzoites?
### Response < 0%

====

Test system: Toxoplasma gondii RH tachyzoites
Assay details: plaque count per well; higher = less inhibition; extreme values may be limits of the assay
Condition summary: 10 µM; 8-10 days
Param threshold (20) applies to plaque count per well; output y when value >= threshold, n when value < threshold.

### Prompt Reported plaque count per well at or above 20? CCCCCCOC(=O)C1=C(C)NC(=O)NC1c1ccccc1F (stereo not given)
### Response y

### Prompt Reported plaque count per well at or above 20? Cc1ccc(-c2nc3ccccc3o2)cc1NCc1cc(Cc2ccccc2)ccc1O
### Response y

### Prompt Reported plaque count per well at or above 20? CN1c2ccccc2N(C)C1c1ccc2c(c1)OCO2
### Response y

### Prompt Reported plaque count per well at or above 20? Oc1ccccc1CN1CCC2(CCCN(Cc3ccccc3F)C2)C1 (stereo not given)
### Response y

### Prompt Reported plaque count per well at or above 20? c1ccc(/C2=N/c3ccccc3/N=C(/c3ccccc3)c3ccccc32)cc1
### Response n

### Prompt Reported plaque count per well at or above 20? COc1ccc(CN2CCN(Cc3ccccc3)CC2)c(O)c1
### Response y

### Prompt Reported plaque count per well at or above 20? OC(CNC1CCCCC1)Cn1c2ccc(I)cc2c2cc(I)ccc21 (stereo not given)
### Response n

### Prompt Reported plaque count per well at or above 20? Cc1cc(N2CCN(C3CCCC3)CC2)n2c(nc3ccccc32)c1C#N
### Response y

### Prompt Reported plaque count per well at or above 20? COc1cc(OC)c(N(C)C(=O)c2cc3c(s2)-c2ccccc2S(=O)(=O)C3)cc1Cl
### Response y
